experiment: Selectivity index, ratio of HC50 for human RBC to MIC for methicillin-resistant Staphylococcus aureus ATCC 33591; format: toxicity; details: red blood cells (erythrocytes)
reported-property: selectivity ratio
Answer using only a numeral; do not append any unit.

Q) What does the record list as selectivity ratio for "CCCCCCCCCCCCCCCC(=O)N[C@@H](CCCCN)C(=O)NCCN([C@@H](C)C(N)=O)S(=O)(=O)c1ccc(Cl)cc1" ?
A) 62.5

----------
test: Hemolytic activity in human RBC assessed as hemoglobin release incubated for 1 hr; type: ADME, cell-based, Erythrocyte; conditions: red blood cells (erythrocytes)
reported-property: HC50 at 1 h (µg/mL)
Give the value, in units of µg/mL, as a plain number.

Q) Returns the measured HC50 at 1 h for the input compound. Input: "CCCCCCCCCCCCCCCC(=O)N[C@@H](CCCCN)C(=O)NCCN([C@@H](C)C(N)=O)S(=O)(=O)c1ccc(Cl)cc1"
A) 62.5

Source: ChEMBL document CHEMBL4610004
